Molecular target: HLA-E (Homo sapiens, UniProt P13747)
Construct: expressed in transfected cells; host or cells: mouse lymphoma cell line RMA-S/HLA-E/LFA-3, a gift from Chiara Romagnani, DRFZ Berlin
Sequence (P61769 21-119): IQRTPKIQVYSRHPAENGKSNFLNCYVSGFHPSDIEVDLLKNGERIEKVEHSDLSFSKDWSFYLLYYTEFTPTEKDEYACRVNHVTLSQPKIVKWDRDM
Sequence (P13747 22-358): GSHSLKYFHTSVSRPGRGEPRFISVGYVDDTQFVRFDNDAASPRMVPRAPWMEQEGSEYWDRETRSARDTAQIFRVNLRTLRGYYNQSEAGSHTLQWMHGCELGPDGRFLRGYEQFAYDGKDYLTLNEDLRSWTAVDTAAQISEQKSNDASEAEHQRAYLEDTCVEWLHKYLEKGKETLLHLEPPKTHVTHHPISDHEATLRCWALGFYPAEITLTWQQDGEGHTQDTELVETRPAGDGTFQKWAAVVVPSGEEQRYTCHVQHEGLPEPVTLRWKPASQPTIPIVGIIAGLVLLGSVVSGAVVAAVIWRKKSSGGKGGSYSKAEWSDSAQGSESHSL
Test: HLA-E stabilization by UL40 peptides on HLA-E-expressing RMA-S cells
Type: cell-based
Settings: HLA-E expression on the cell surface of RMA-S cells incubated with UL40 peptide
sequences and their reported Mean MFI
Output spec: single numeric token, no unit.

Previously resolved entries follow.
• VMAPRILVL [HCMV UL40 peptide variant] = 2299
• VLAPRTLLL [HCMV UL40 peptide variant] = 2059
• VMAPRTLFL [HCMV UL40 peptide variant] = 3797
• VMAPRTLVL [HCMV UL40 peptide variant] = 3782
• GMAPRTLLL [HCMV UL40 peptide variant] = 1575
• VMGPRTLIL [HCMV UL40 peptide variant] = 1858
• VMAPWTLVL [HCMV UL40 peptide variant] = 1503
• VIAPRTLIL [HCMV UL40 peptide variant] = 1541

// moving on: another record for Mean MFI
Determine reported Mean MFI for VMAPRILIL [HCMV UL40 peptide variant] ; test system: HLA-E (Homo sapiens, UniProt P13747).
2056

* * *

sequences and their reported Mean MFI
Target: HLA-E (Homo sapiens)
Construct: expressed in transfected cells; host or cells: mouse lymphoma cell line RMA-S/HLA-E/LFA-3, a gift from Chiara Romagnani, DRFZ Berlin
Test: HLA-E stabilization by UL40 peptides on HLA-E-expressing RMA-S cells
Type: cell-based
Conditions: HLA-E expression on the cell surface of RMA-S cells incubated with UL40 peptide

Previously resolved entries follow.
* VMTPRTLIL [HCMV UL40 peptide variant] | 2633
* VMAPWTLIL [HCMV UL40 peptide variant] | 1210

Item VMTPRTLVL [HCMV UL40 peptide variant] : provide Mean MFI
2488

Item VMAPRSLLL [HCMV UL40 peptide variant] : provide Mean MFI
2351

Item VMAPRSLIL [HCMV UL40 peptide variant] : provide Mean MFI
2074

src = patent US20260144862A1
